biological target: Neurogenic locus notch homolog protein 3 (Homo sapiens); test: NOTCH3 binders on small-molecule microarray, primary screen, biochemical, 635/667 nm fluorescence (AID 1096); settings: NOTCH3 binding, 635 nm fluorescence, higher = more signal
Measured composite z-score, listed per entry for reference.
Give the figure only, with no unit attached.

Previously resolved entries follow.
| Smiles data | Experimental result |
| --- | --- |
| COC(=O)C(CC#Cc1ccc2c(c1)[C@]1(C(=O)N2)[C@H](C(=O)O)[C@H]2C(=O)O[C@H](c3ccccc3)[C@H](c3ccccc3)N2[C@@H]1c1ccccc1OCCO)C(=O)OC | 1.15 |
| CCOC(=O)[C@@H]1[C@@H]2C(=O)N(CC)C(=O)[C@@H]2C[C@@H]1Sc1ccccc1 | 0.722 |

-- ask Give the measured composite z-score of `COc1cc2c(cc1OC)CN(C(=O)[C@H]1[C@@H]3C(=O)O[C@@H](c4ccccc4)[C@@H](c4ccccc4)N3[C@@H](c3ccc(OCCO)cc3)[C@]13C(=O)Nc1ccc(C#CC4(O)CCCCCC4)cc13)CC2` .
-- reply 1.09

-- ask Give the measured composite z-score of `COc1ccccc1CN1C(=O)c2ccccc2[C@](Cc2ccccc2I)(C(=O)NC(C)C)[C@@H]1c1ccc(CO)cc1` .
-- reply 1.06

-- ask Give the measured composite z-score of `COc1ccc(C#Cc2ccc3c(c2)[C@]2(C(=O)N3)[C@H](C(=O)N3CCc4cc(OC)c(OC)cc4C3)[C@H]3C(=O)O[C@H](c4ccccc4)[C@H](c4ccccc4)N3[C@@H]2c2ccc(O)cc2)cc1` .
-- reply 1.01

-- ask Give the measured composite z-score of `COc1cc(CO)cc(I)c1O[C@H]1C=C(C(=O)NCCO)C[C@@H](NCc2ccccc2F)[C@@H]1O` .
-- reply 0.75

----------
test system: Fibrinogen (Alexa647-labelled); assay: fibrinogen binders on compound microarrays, profiling panel, artefact control for SMM control-protein annotation, biochemical, small-molecule microarray, 635/667 nm fluorescence (AID 1131); details: fibrinogen-A647 binding fluorescence, higher = more signal;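 note: z-score merges 667 nm fluorescence with per-spot signal-to-noise over triplicate slides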
composite z-score of -0.07 or higher: true. Under -0.07: false.

-- ask Would you say `C[N+](C)(C)CCCC[C@@H]1NC(=O)[C@@H]2C[C@H](C(=O)O)[C@H](c3ccc(O)cc3)N2C1=O` shows composite z-score at minimum -0.07?
-- reply false

----------
molecular target: Dickkopf-related protein 1 (Homo sapiens); experiment: DKK1 binders on small-molecule microarrays, primary screen, biochemical, small-molecule microarray, 635 nm fluorescence scan (AID 1106); conditions: DKK1 binding, higher = more signal;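 note: score merges emission near 667 nm with signal to noise over three replicate slides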
Measured composite z-score, listed per entry for reference.
Give the figure only, with no unit attached.

Previously resolved entries follow.
| Compound | Experimental result |
| --- | --- |
| CC(C)N1CC=CC23O[C@@H]4C=CCOC(=O)[C@@H]4[C@H]2C(=O)N(C(C)CO)[C@@H]3C1=O (some centres undefined) | -1.21 |
| CCCNC(=O)[C@@]1(c2ccc([N+](=O)[O-])cc2)CC(=O)N(C2CCCCC2)[C@@H]1c1ccc(CO)cc1I | 0.214 |
| COCCCNC(=O)[C@]1(Cc2ccccc2CN=[N+]=[N-])N=C(c2ccc(OCCCO)cc2)O[C@@H]1c1ccccc1 | -0.817 |
| C=C(C(=O)CC[C@H](OC(=O)c1cccnc1)c1ccc(CO)o1)C(C)C | 0.603 |
| COCCOC(=O)N1C(=O)[C@@]2(c3cc(C#Cc4ccc(OC)cc4)ccc31)[C@H](C(=O)N1CCN(c3ncccn3)CC1)[C@H]1C(=O)O[C@H](c3ccccc3)[C@H](c3ccccc3)N1[C@@H]2c1ccccc1OCCO | -0.163 |
| CC[C@@H]1[C@H]2C3C(=O)N(CC)C(=O)C3CC(=O)[C@H]2[C@H](c2ccc(C)cc2)N1S(=O)(=O)c1ccc(C)cc1 (some centres undefined) | 0.0029 |
| CC(C)c1ccc(NN2C(C(O)c3ccco3)C=CC3C(=O)N(c4ccccc4)C(=O)C32)cc1 (centres undefined) | 0.191 |
| C[C@@H]1ON(c2ccc(C(=O)OC(C)(C)C)cc2)[C@H](c2ccc(Br)cc2)[C@H]1C(=O)N1C(=O)OC[C@H]1Cc1ccccc1 | 1.11 |

-- ask Give the measured composite z-score of `CCOC(=O)C1=CC[C@@H](c2ccccc2)N(S(=O)(=O)c2ccc(C)cc2)C1` .
-- reply 0.107

-- ask Give the measured composite z-score of `O=C1C[C@@](C(=O)NCC(F)(F)F)(c2ccc([N+](=O)[O-])cc2)[C@@H](c2ccc(CO)cc2)N1C1CCCCC1` .
-- reply 0.172

-- ask Give the measured composite z-score of `Cc1c(NC(=O)/C(C#N)=C/C=C/c2ccccc2[N+](=O)[O-])c(=O)n(-c2ccccc2)n1C` .
-- reply 0.446

-- ask Give the measured composite z-score of `O=C(CCCCCCC(=O)Nc1ccccc1)N/N=C/c1ccccc1` .
-- reply 0.328

-- ask Give the measured composite z-score of `COCCOC(=O)N1C(=O)[C@@]2(c3cc(C#CC4=CCCCC4)ccc31)[C@H](C(=O)N1CCN(c3ncccn3)CC1)[C@H]1C(=O)O[C@H](c3ccccc3)[C@H](c3ccccc3)N1[C@@H]2c1ccc(O)cc1` .
-- reply 0.496

-- ask Give the measured composite z-score of CC(C)OC(=O)CC(=O)CC(O)c1cccc(C#N)c1 (centres undefined) .
-- reply -0.618
